These measurements were taken from patent US20200399712A1.

Entries and their Threshold of tumor cell numbers for HPV-16 detection values follow.
Tested on: HPV-16
Experiment: qPCR sensitivity against HPV-HNSCC tumor samples diluted among 10 ng normal human DNA
Settings: Sample # 1
Number only, in tumor cells; omit the unit.

Reference set, count: 3
[
  {
    "MOLECULE": "E6: previously designed (historical) HPV-16 E6 primers and Taqman probe, SEQ ID NO: 7-9, positive control (nucleic acid, Taqman probe, labels not given here) DNA 1: TCAGGACCCACAGGAGCG DNA 2: CCTCACGTCGCAGTAACTGTTG DNA 3: CCCAGAAAGTTACCACAGTTATGCACAGAGCT",
    "READOUT_VALUE": 150.0
  },
  {
    "MOLECULE": "BR E1-6: HPV-16 E1 region primer/probe set, SEQ ID NO: 43-45 (nucleic acid, chemistry not given here) DNA 1: ATGCACAATTGGCAGACACTAA DNA 2: AATCCTTTACAATTTTTGCCTGTGA DNA 3: AGTAATGCAAGTGCCTTTCTAAAAAGTA",
    "READOUT_VALUE": 150.0
  },
  {
    "MOLECULE": "E7: previously designed (historical) HPV-16 E7 primers and Taqman probe, SEQ ID NO: 10-12; part of CLIA test (nucleic acid, Taqman probe, labels not given here, part of CLIA test) DNA 1: CCGGACAGAGCCCATTACAA DNA 2: CGAATGTCTACGTGTGTGCTTTG DNA 3: CGCACAACCGAAGCGTAGAGTCACACT",
    "READOUT_VALUE": 60.0
  }
]

QUERY: Name the recorded Threshold of tumor cell numbers for HPV-16 detection for BR E1-5: HPV-16 E1 region primer/probe set, SEQ ID NO: 40-42 (same as SEQ ID NO: 1-3) (nucleic acid, chemistry not given here) DNA 1: GCACAATTGGCAGACACTAAT DNA 2: GCACAATCCTTTACAATTTTTGCC DNA 3: AGTAATGCAAGTGCCTTTCTAAAAAGTAATTC .
RESULT: 60.0

QUERY: Same again, this time with BR E6-1: HPV-16 E6 region (172-373 bp) primer/probe set, SEQ ID NO: 58-60 (nucleic acid, chemistry not given here) DNA 1: CAGTTACTGCGACGTGAGGT DNA 2: ACAGCATATGGATTCCCATCTC DNA 3: ACTTTGCTTTTCGGGATTTATGCATAGTA
RESULT: 150.0
